# Test system: Plutella xylostella
# Experimental Details: Insecticidal activity against Plutella xylostella (diamondback moth) […] larvae infested on compound pre-treated fresh cabbage leaves assessed as larvicidal activity at 20 mg/L measured 3 days post treatment
# Format: functional
Observed Property: mortality at 20 µg/mL (%)

>>> test_result("O=C(NC(=O)c1c(F)cccc1F)Nc1ccc(C2=NOC(c3ccc(F)cc3)C2)cc1 (stereo not drawn)")
100
>>> test_result("CCCCC1CC(c2ccc(NC(=O)NC(=O)c3c(F)cccc3F)cc2)=NO1 (stereo not drawn)")
20
>>> test_result("CC1(c2ccccc2)CC(c2ccc(NC(=O)NC(=O)c3c(F)cccc3F)cc2)=NO1 (stereo not drawn)")
30
